target-entity: human Farnesoid X receptor ligand-binding domain/Gal4 DNA binding domain chimera (Homo sapiens (Human), UniProt Q96RI1)
Sequence (Q96RI1 262-486, change not shown): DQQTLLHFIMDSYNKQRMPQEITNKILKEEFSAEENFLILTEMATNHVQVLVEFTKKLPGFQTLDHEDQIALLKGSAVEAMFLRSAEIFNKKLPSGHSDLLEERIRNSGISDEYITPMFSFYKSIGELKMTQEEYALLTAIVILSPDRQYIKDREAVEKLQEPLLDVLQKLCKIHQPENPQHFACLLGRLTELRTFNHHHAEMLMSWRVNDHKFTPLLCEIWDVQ
Sequence (P04386 1-147 partner): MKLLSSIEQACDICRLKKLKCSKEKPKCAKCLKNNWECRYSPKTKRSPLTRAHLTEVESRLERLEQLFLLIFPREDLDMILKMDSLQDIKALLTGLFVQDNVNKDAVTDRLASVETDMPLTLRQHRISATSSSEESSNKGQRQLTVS
experimental-details: Cell-based assay of FXR activation (FXR-UAS-bla HEK 293T beta-lactamase reporter)
condition-summary: HEK-293T; extent of activation relative to GW4064; cellular FXR beta-lactamase reporter assay; read-out: % Efficacy

[
  {
    "molecule": "COC(=O)c1ccc(N2C[C@@H]3C[C@H]2C[C@H]3OCc2c(-c3c(Cl)cccc3Cl)noc2C2CC2)cc1F [Compound I-177]",
    "Emax / %": 109
  },
  {
    "molecule": "CCCS(=O)(=O)NC(=O)c1ccc(N2C[C@@H]3C[C@H]2C[C@H]3OCc2c(-c3ccccc3C(F)(F)F)noc2C2CC2)c(F)c1 [Compound I-200]",
    "Emax / %": 110
  },
  {
    "molecule": "O=C(NS(=O)(=O)C1CC1)c1ccc(N2C[C@H]3C[C@@H]2C[C@@H]3OCc2c(-c3c(Cl)cccc3Cl)noc2C2CC2)cc1 [Compound I-232]",
    "Emax / %": 93
  },
  {
    "molecule": "NS(=O)(=O)[C@@H]1CCC[C@H]1OC(=O)c1ccc(N2C(=O)[C@@H]3C[C@H]2C[C@H]3OCc2c(-c3c(Cl)cccc3Cl)noc2C2CC2)cc1 [Compound I-345]",
    "Emax / %": 121
  },
  {
    "molecule": "Cc1cccc(Cl)c1-c1noc(C2CC2)c1CO[C@@H]1C[C@@H]2C[C@H]1CN2c1ccc(CCC(=O)NS(C)(=O)=O)cc1F [Compound I-241]",
    "Emax / %": 98
  },
  {
    "molecule": "O=C(O)c1nnc(N2C[C@@H]3C[C@H]2C[C@H]3OCc2c(-c3c(Cl)cccc3Cl)noc2C2CC2)s1 [Compound I-178]",
    "Emax / %": 70
  }
]

---

Consider the following molecules and their measured Emax readings.
target-entity: human Farnesoid X receptor ligand-binding domain/Gal4 DNA binding domain chimera (Homo sapiens (Human), UniProt Q96RI1)
experimental-details: Cell-based assay of FXR activation (FXR-UAS-bla HEK 293T beta-lactamase reporter)
condition-summary: HEK-293T; extent of activation relative to GW4064; cellular FXR beta-lactamase reporter assay; read-out: % Efficacy
value-kind: Emax (%)

[
  {
    "molecule": "O=C(O)[C@@H]1CCc2cc(N3C[C@@H]4C[C@H]3C[C@H]4OCc3c(-c4c(Cl)cccc4Cl)noc3C3CC3)ccc2C1 (single isomer, unassigned) [Compound I-137]",
    "value-kind": "Emax",
    "number": 106
  },
  {
    "molecule": "O=C(O)C1CC(c2ccc(N3C[C@@H]4C[C@H]3C[C@H]4OCc3c(-c4c(Cl)cccc4Cl)noc3C3CC3)cc2)C1 (stereo partly drawn) [Compound I-151]",
    "value-kind": "Emax",
    "number": 106
  },
  {
    "molecule": "Cc1cccc(Cl)c1-c1noc(C2CC2)c1CO[C@@H]1C[C@@H]2C[C@H]1CN2c1ccc(CCC(=O)NS(=O)(=O)C2CC2)cc1F [Compound I-242]",
    "value-kind": "Emax",
    "number": 97
  },
  {
    "molecule": "O=C(NS(=O)(=O)C1CC1)c1cnc(N2C[C@@H]3C[C@H]2C[C@H]3OCc2c(-c3c(Cl)cccc3Cl)noc2C2CC2)c(F)c1 [Compound I-207]",
    "value-kind": "Emax",
    "number": 104
  },
  {
    "molecule": "O=C(O)C1Cc2ccc(N3C(=O)[C@@H]4C[C@H]3C[C@H]4OCc3c(-c4c(Cl)cccc4Cl)noc3C3CC3)cc2C1 (stereo partly drawn) [Compound I-313]",
    "value-kind": "Emax",
    "number": 112
  },
  {
    "molecule": "O=C(O)c1cc(OCC(F)(F)F)c2nc(N3C[C@@H]4C[C@H]3C[C@H]4OCc3c(-c4c(Cl)cccc4Cl)noc3C3CC3)sc2c1 [Compound I-17]",
    "value-kind": "Emax",
    "number": 102
  }
]
